Data credit: patent EP4772535A1

biological target: T1, ROR1 naturally expressed on human tumor cell lines (A549, Jeko-1, SW620, PA-1) (human, UniProt Q01973 30-937); experiment: FACS on Jeko-1 cells naturally expressing ROR1
T1 construct: whole, on cells; also called cells expressing ROR1
T1 sequence (Q01973 30-937): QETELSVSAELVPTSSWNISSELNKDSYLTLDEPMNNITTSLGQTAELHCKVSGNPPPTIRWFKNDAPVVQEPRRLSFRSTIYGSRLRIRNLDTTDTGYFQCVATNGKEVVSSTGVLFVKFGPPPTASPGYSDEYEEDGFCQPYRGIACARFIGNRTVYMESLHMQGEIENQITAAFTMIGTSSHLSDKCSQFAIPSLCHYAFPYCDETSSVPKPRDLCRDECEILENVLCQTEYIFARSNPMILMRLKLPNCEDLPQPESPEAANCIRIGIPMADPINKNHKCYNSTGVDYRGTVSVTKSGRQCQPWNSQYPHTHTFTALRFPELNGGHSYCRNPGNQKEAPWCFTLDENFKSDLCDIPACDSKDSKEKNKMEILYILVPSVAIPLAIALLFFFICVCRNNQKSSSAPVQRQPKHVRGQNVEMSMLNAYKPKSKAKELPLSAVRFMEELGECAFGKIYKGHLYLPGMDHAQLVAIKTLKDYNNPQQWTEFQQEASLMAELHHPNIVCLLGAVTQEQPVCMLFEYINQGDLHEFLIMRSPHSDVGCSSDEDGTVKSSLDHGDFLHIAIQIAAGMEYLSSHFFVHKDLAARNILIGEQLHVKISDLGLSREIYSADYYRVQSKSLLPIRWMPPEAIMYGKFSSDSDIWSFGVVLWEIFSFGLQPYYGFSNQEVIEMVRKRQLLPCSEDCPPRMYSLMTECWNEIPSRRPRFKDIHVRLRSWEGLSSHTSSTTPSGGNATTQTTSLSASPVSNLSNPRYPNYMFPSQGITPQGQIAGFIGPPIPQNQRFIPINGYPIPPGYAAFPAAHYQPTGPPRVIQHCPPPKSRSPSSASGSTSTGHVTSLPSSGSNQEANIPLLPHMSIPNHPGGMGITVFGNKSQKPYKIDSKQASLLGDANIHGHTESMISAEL
parameter: Top (MFI)
Return type: number; implicit unit MFI.

binder: hz29H5D8-3.1 (antibody, human IgG1, kappa, V domains shown, Humanized, human IgG1/kappa) VH: QVQLVQSGAEVKKPGSSVKVSCKASGYTFTNYGISWVRQAPGQGLEWMGEIYPRSVNTYYAQKFQGRVTITADKSTSTAYMELSSLRSEDTAVYYCARHYYGSSLDYWGQGTLVTVSS VL: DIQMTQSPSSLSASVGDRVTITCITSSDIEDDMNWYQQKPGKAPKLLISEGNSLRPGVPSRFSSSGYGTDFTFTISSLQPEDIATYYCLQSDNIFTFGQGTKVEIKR
unit_abbrev: MFI
Top (MFI): 87700
--
binder: UC-961 (antibody, V domains shown) VH: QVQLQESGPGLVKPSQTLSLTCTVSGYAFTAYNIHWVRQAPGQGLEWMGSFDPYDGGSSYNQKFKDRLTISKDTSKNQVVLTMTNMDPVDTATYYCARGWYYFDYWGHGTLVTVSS VL: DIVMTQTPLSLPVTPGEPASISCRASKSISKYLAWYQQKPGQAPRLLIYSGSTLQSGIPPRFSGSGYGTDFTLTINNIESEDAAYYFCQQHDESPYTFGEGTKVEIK
unit_abbrev: MFI
Top (MFI): 91700
--
binder: hz29H5D8-2.1 (antibody, human IgG1, kappa, V domains shown, Humanized, human IgG1/kappa) VH: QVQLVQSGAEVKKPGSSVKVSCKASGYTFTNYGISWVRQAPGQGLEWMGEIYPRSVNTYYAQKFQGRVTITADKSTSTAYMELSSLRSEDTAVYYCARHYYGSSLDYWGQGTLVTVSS VL: DIQMTQSPSSLSASVGDRVTITCITSSDIEDDMNWYQQKPGKAPKLLIYEGNSLRPGVPSRFSSSGYGTDFTFTISSLQPEDIATYYCLQSDNIFTFGQGTKVEIKR
unit_abbrev: MFI
Top (MFI): 85000

Now look at this one.
// field: Top (MFI); key: hz29H5D8-3.2 (antibody, human IgG1, kappa, V domains shown, Humanized, human IgG1/kappa) VH: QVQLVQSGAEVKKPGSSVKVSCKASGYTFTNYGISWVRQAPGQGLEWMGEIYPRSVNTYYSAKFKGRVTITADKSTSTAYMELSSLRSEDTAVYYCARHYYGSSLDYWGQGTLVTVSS VL: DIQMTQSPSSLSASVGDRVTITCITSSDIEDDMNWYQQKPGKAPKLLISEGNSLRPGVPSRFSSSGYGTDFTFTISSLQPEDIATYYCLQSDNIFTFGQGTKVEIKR ; value = 89000
